Provenance of the data: patent US20050101595A1

Biological target: CDK2/Cyclin A (Homo sapiens)
Assay: Inhibition of CDK2/Cyclin A Retinoblastoma Kinase Activity
Type: biochemical
Settings: 0.03 μM compound; Table 3
PROPERTY_LABEL: CDK2 % Inhibition at 0.03 μM (%)

smiles_repr=Cc1nn(C)c(Cl)c1S(=O)(=O)N1CCC(Nc2nc(N)c(C(=O)c3c(F)cccc3F)s2)CC1 property_label="CDK2 % Inhibition at 0.03 μM" observed=30
smiles_repr=Nc1nc(NC2CCN(S(=O)(=O)c3ccc(Cl)cc3)CC2)sc1C(=O)c1c(F)cccc1F property_label="CDK2 % Inhibition at 0.03 μM" observed=60
smiles_repr=Nc1nc(NC2CCN(S(=O)(=O)c3cccc(Br)c3)CC2)sc1C(=O)c1c(F)cccc1F property_label="CDK2 % Inhibition at 0.03 μM" observed=59
smiles_repr=N#Cc1ccccc1S(=O)(=O)N1CCC(Nc2nc(N)c(C(=O)c3c(F)cccc3F)s2)CC1 property_label="CDK2 % Inhibition at 0.03 μM" observed=59
